target_under_test: Mitogen-activated protein kinase 14 (Homo sapiens, UniProt Q16539)
Sequence (Q16539 whole entry): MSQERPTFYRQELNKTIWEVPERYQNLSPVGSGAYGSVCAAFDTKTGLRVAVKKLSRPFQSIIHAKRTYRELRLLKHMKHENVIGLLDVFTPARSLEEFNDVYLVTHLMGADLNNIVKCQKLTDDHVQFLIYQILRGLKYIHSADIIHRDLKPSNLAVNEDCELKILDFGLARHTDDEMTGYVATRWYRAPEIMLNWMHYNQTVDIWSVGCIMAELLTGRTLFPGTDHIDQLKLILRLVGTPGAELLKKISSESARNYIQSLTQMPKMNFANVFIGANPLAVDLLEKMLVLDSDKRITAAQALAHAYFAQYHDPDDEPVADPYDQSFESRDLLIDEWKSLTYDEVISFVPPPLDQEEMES
assay_overview: Inhibition of human p38alpha after 60 mins
readout_type: IC50 (nM)
Field: numeric (nM). Do not append units.

{"record_smiles": "COc1cc2occ(C(=O)C(=O)N(C)C)c2cc1C(=O)N1CCC(Cc2ccc(F)cc2)CC1", "target_under_test": "Mitogen-activated protein kinase 14 (Homo sapiens, UniProt Q16539)", "IC50 (nM)": 600}

Could you share which IC50 value was measured for Cc1[nH]c2ccc(C(=O)C(=O)N(C)C)cc2c1C(=O)N1CCC(Cc2ccc(F)cc2)CC1 ?
90

Name the recorded IC50 for COc1ccc(C(=O)C(=O)N(C)C)cc1C(=O)N1CCC(Cc2ccc(F)cc2)CC1 .
945

----------
target_under_test: Mitogen-activated protein kinase 14 (Homo sapiens)
assay_overview: Inhibition of human p38alpha after 60 mins
readout_type: pIC50
pIC50 here: minus log base 10 of the concentration, concentration in moles per litre.

Solved entries:
{"record_smiles": "COc1cc2[nH]cc(C(=O)C(=O)N(C)C)c2cc1C(=O)N1CCC(Cc2ccc(F)cc2)CC1", "target_under_test": "Mitogen-activated protein kinase 14 (Homo sapiens)", "pIC50": 8.00}
{"record_smiles": "CN(C)C(=O)C(=O)c1c[nH]c2cc(Cl)c(C(=O)N3CCC(Cc4ccc(F)cc4)CC3)cc12", "target_under_test": "Mitogen-activated protein kinase 14 (Homo sapiens)", "pIC50": 7.74}
{"record_smiles": "CN(C)C(=O)C(=O)c1nn(C)c2cc(Cl)c(C(=O)N3CCC(Cc4ccc(F)cc4)CC3)cc12", "target_under_test": "Mitogen-activated protein kinase 14 (Homo sapiens)", "pIC50": 7.00}

Endpoint output: pIC50 of COc1nc2[nH]cc(C(=O)C(=O)N(C)C)c2cc1C(=O)N1CCC(Cc2ccc(F)cc2)CC1 . Value?
7.22
